Experimental Target: SARS-COV-2 RBD extracellular domain expressed with a C-terminal myc-myc-hexahistidine tag (SARS-CoV-2)
Assay Notes: SPR (Biacore), mAb captured by anti-human Fc, RBD-mmH in solution, 25 C
# kon values compiled below
Parameter Measured: kon (M⁻¹ s⁻¹)

{"Binder": "mAb13458 (antibody, V domains shown) VH: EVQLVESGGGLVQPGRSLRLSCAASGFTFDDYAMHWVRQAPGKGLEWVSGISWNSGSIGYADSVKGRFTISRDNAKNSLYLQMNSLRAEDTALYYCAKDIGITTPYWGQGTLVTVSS VL: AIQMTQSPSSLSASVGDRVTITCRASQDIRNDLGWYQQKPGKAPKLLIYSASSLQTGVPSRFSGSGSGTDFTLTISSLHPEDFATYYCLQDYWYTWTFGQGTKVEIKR", "Parameter Measured": "kon", "Units Of Measure": "M⁻¹ s⁻¹", "Observed Value": 909000}
{"Binder": "mAb14289 (antibody, V domains shown) VH: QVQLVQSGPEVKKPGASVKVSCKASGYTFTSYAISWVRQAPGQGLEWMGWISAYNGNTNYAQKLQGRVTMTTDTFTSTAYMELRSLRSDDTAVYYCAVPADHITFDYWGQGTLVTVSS VL: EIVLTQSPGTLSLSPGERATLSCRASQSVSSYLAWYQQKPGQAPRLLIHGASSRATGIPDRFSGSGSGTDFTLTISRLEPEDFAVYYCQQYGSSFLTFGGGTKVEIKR", "Parameter Measured": "kon", "Units Of Measure": "M⁻¹ s⁻¹", "Observed Value": "1.16e+06"}
